- protocol-description: Cytotoxicity against human MT4 cells assessed as cell viability
- Format: cell-based
Each entry below lists one item and its recorded CC50 value.

Solved cases below.
Cc1cc(C)cc(S(=O)(=O)n2c(SCC(=O)Nc3ccccc3[N+](=O)[O-])nc3ccccc32)c1 :: ≥ 26.1 µM
Cc1cc(C)cc(S(=O)(=O)n2c(SCC(=O)Nc3ccc(S(C)(=O)=O)cc3Cl)nc3ccccc32)c1 :: > 222 µM

Query compound follows.
The value of CC50 measured for the compound Cc1ccnc2c1NC(=O)c1cccnc1N2C1CC1 turned out to be > 15 µM

====

- system-under-test: Human immunodeficiency virus type 1 reverse transcriptase (Human immunodeficiency virus 1, UniProt Q72547)
- protocol-description: Inhibition of GST-tagged recombinant wild type HIV-1 reverse transcriptase p66/p51 RNA-dependent DNA polymerase activity expressed in Escherichia coli JM109 using dTTP as substrate after 40 mins by spectrofluorometric analysis
readout-kind: IC50

COC(=O)c1ccc(NC(=O)CSc2nc3ccc(Cl)cc3n2Cc2cc(C)cc(C)c2)c(Cl)c1 :: > 227 µM
Cc1cc(C)cc(Cn2c(SCC(=O)Nc3ccccc3Br)nc3ccc(Cl)cc32)c1 :: > 233 µM
Cc1cc(C)cc(S(=O)(=O)n2c(SCC(=O)Nc3ccc(C)cc3Cl)nc3ccc(Cl)cc32)c1 :: 46.4 µM
COC(=O)c1ccc(NC(=O)CSc2nc3ccccc3n2Cc2cc(C)cc(C)c2)c(Cl)c1 :: 40.3 µM
Cc1cc(C)cc(Cn2c(SCC(=O)Nc3ccc(S(C)(=O)=O)cc3Cl)nc3ccccc32)c1 :: 1.93 µM

API: the following record is the query input.
Item: Cc1cc(C)cc(Cn2c(SCC(=O)Nc3ccccc3[N+](=O)[O-])nc3ccc(Cl)cc32)c1 | IC50: > 249 µM
